measurement-description: Comparative bioavailability: baclofen plasma levels after oral baclofen or example 15
Format: in vivo
condition-info: 20 ug/kg, baclofen dosed 20 mcg/kg p.o., t = 24 hrs
metric-name: AUC(0-t) (ng·h/mL)
Answer format: numeric, ng·h/mL implied, no suffix.

Exam item: GET /values?readout=AUC(0-t)&item= NCC(CC(=O)O)c1ccc(Cl)cc1 (stereo not shown)
Marked response: 15000

----------
measurement-description: Comparative bioavailability: LC-MS determination of gabapentin in plasma after oral gabapentin or example 5
Format: in vivo
condition-info: po; gabapentin dosed 100 mg/kg p.o.; t = 24 hrs; plasma
metric-name: AUC(0-t)
Answer with the number, then the unit.

Exam item: GET /values?readout=AUC(0-t)&item= NCC1(CC(=O)O)CCCCC1 [Gabapentin, 1-(aminomethyl)cyclohexaneacetic acid]
Marked response: 99000 ng·h/mL
